- Measurement notes: folding enthalpy; higher = less favourable; fluorescence melt of hairpins on a sequencing array, two-state fit
- Stated conditions: sodium 0.088 M
Readout: folding enthalpy (kcal/mol)
# number only, unit kcal/mol dropped from output

{"Construct sequence": "GATCTTCACCAAGATC ((((((....))))))", "folding enthalpy [kcal/mol]": -35.5}

Ask: Please list folding enthalpy recorded for the sequence GCCGAAGAAATTCGGC ((((((....))))))
Reply: -33.9

====

- Measurement notes: folding enthalpy; higher = less favourable; fluorescence melt of hairpins on a sequencing array, two-state fit
- Stated conditions: sodium 0.088 M
If the reported folding enthalpy equals or exceeds -30 kcal/mol, assign label 1. If not, assign label 0.

{"Construct sequence": "GCGGCCGAAAGGCTTCGC ((((((....)))..)))", "Discrete label": "label 1"}

Please examine the following record next.
Ask: Entry GATCAGTCGCCTGATC ((((((....)))))) : is its folding enthalpy no less than -30 kcal/mol?
Reply: label 0

====

- Measurement notes: melting temperature; fluorescence melt of hairpins on a sequencing array, two-state fit, raised by 9.35 °C to match UV melts
- Stated conditions: sodium 0.088 M
Form field: Tm (one value per entry).
# number only, unit °C dropped from output

Solved cases (4 shown):
{"Construct sequence": "GCTGCTCGAAAGAGAGC (((.(((....))))))", "Units label": "°C", "Tm": 48}
{"Construct sequence": "GTGCGACCGAAAGGTCAC (((..(((....))))))", "Units label": "°C", "Tm": 60}
{"Construct sequence": "CGCGCGGAAACGCTTGCG ((((((....)))..)))", "Units label": "°C", "Tm": 49.4}
{"Construct sequence": "GTCCCCGAAAGGGGGGAC ((((((....)))..)))", "Units label": "°C", "Tm": 60.5}

Ask: Please list Tm recorded for the sequence GGACTCGGAAACGGGTTC (.((.((....)).)).)
Reply: 40.2

Ask: Please list Tm recorded for the sequence GATATCACGAAAGTGATC (((..(((....))))))
Reply: 39.4

Ask: Please list Tm recorded for the sequence GCCGCGCGAAAGCACCGC ((.(.((....)).).))
Reply: 46.5

====

Form field: folding enthalpy (one value per entry).
- Measurement notes: folding enthalpy; higher = less favourable; fluorescence melt of hairpins on a sequencing array, two-state fit
- Stated conditions: sodium 0.088 M
# number only, unit kcal/mol dropped from output

Solved cases (3 shown):
{"Construct sequence": "GACAGGCGAAAGCCGGTC (((.(((....))).)))", "Readout": "folding enthalpy", "Units label": "kcal/mol", "Reading": -25.9}
{"Construct sequence": "GTCGAGCGAAAGCTGGAC (((.(((....))).)))", "Readout": "folding enthalpy", "Units label": "kcal/mol", "Reading": -28.9}
{"Construct sequence": "GCGACCACTCGC ((((....))))", "Readout": "folding enthalpy", "Units label": "kcal/mol", "Reading": -25.4}

Ask: Please list folding enthalpy recorded for the sequence GACTCACGAAAGTGGTC (((.(((....))))))
Reply: -20

Ask: Please list folding enthalpy recorded for the sequence GATCTGGAGCAGATC ((((((...))))))
Reply: -28.1

Ask: Please list folding enthalpy recorded for the sequence GCCCGGCGAAAGCAGTGC ((.(.((....)).).))
Reply: -18.2

Ask: Please list folding enthalpy recorded for the sequence GGCAGCGAAAGCTCCGCC ((((((....)))..)))
Reply: -19.2

Ask: Please list folding enthalpy recorded for the sequence GATCTTAAGAAGATC ((((((...))))))
Reply: -25.5

====

- Measurement notes: folding enthalpy; higher = less favourable; fluorescence melt of hairpins on a sequencing array, two-state fit
- Stated conditions: sodium 0.088 M
Readout: folding enthalpy
Be sure to follow the number with its unit.

Solved cases (2 shown):
{"Construct sequence": "GATCATCGTAATGATC ((((((....))))))", "folding enthalpy": "-39.5 kcal/mol"}
{"Construct sequence": "GTACGGTCGAAAGACTAC (((..(((....))))))", "folding enthalpy": "-10.6 kcal/mol"}

Ask: Please list folding enthalpy recorded for the sequence GATGGACGAAAGTCATC (((.(((....))))))
Reply: -17.9 kcal/mol

Ask: Please list folding enthalpy recorded for the sequence GAGAGCGAAAGCTGCTC ((((((....))).)))
Reply: -14 kcal/mol

Ask: Please list folding enthalpy recorded for the sequence GAGGTGGGAAACCATCTC (((.(((....))).)))
Reply: -31.3 kcal/mol

Ask: Please list folding enthalpy recorded for the sequence GATATCGGAAACGGTATC ((((.((....)).))))
Reply: -29.8 kcal/mol

Ask: Please list folding enthalpy recorded for the sequence GATCGCAGTCGCGATC ((((((....))))))
Reply: -34.5 kcal/mol

Ask: Please list folding enthalpy recorded for the sequence GGCCCCCGAAAGGGCGCC (((.(((....))).)))
Reply: -24.8 kcal/mol

Ask: Please list folding enthalpy recorded for the sequence GCCTTCTCGAAAGAGGGC (((..(((....))))))
Reply: -23.8 kcal/mol

Ask: Please list folding enthalpy recorded for the sequence GCTCCCGAAAGGGGAAGC ((((((....)))..)))
Reply: -19.2 kcal/mol

Ask: Please list folding enthalpy recorded for the sequence GCGAATGGAAACGTTTGC ((.((.(....).)).))
Reply: -30.7 kcal/mol

Ask: Please list folding enthalpy recorded for the sequence GGCTAGGGAAACCTAACC ((.((((....)))).))
Reply: -30.3 kcal/mol

Ask: Please list folding enthalpy recorded for the sequence GCAGTTCCGAAAGGATGC (((..(((....))))))
Reply: -17.8 kcal/mol

====

Form field: Tm (one value per entry).
- Measurement notes: melting temperature; fluorescence melt of hairpins on a sequencing array, two-state fit, raised by 9.35 °C to match UV melts
- Stated conditions: sodium 0.088 M
# number only, unit °C dropped from output

{"Construct sequence": "GATCAGACCACTGATC ((((((....))))))", "Readout": "Tm", "Units label": "°C", "Reading": 49.4}
{"Construct sequence": "GCCGCGCGAAAGCGTAGC ((..(((....)))..))", "Readout": "Tm", "Units label": "°C", "Reading": 48.9}
{"Construct sequence": "GAATGTGAAAACATTC ((((((....))))))", "Readout": "Tm", "Units label": "°C", "Reading": 51.3}
{"Construct sequence": "GTAGACGGAAACGTTTGC (.(.(((....))).).)", "Readout": "Tm", "Units label": "°C", "Reading": 29.6}

Ask: Please list Tm recorded for the sequence GATCATCCAAATGATC ((((((....))))))
Reply: 46.3

Ask: Please list Tm recorded for the sequence GCGTAGACACGC ((((....))))
Reply: 50.7

Ask: Please list Tm recorded for the sequence CGAGCACGGAAACGTTCG (((..(((....))))))
Reply: 36.7

Ask: Please list Tm recorded for the sequence GATCACGAAAGTGTAATC ((((((....)))..)))
Reply: 30.1

Ask: Please list Tm recorded for the sequence GTCTTATCGAAAGATGAC (((..(((....))))))
Reply: 28.5

Ask: Please list Tm recorded for the sequence GTCCCTGAAAAGGGAC ((((((....))))))
Reply: 67.7

====

- Measurement notes: folding enthalpy; higher = less favourable; fluorescence melt of hairpins on a sequencing array, two-state fit
- Stated conditions: sodium 0.088 M
Readout: folding enthalpy (kcal/mol)
# number only, unit kcal/mol dropped from output

Ask: Please list folding enthalpy recorded for the sequence GTGACCCGAAAGGGACAC (((.(((....))).)))
Reply: -40.2

Ask: Please list folding enthalpy recorded for the sequence GGCTCCGAAAGGAGTGCC ((((((....)))..)))
Reply: -14.5

Ask: Please list folding enthalpy recorded for the sequence AGCTTGAAAAAGCT (((((....)))))
Reply: -17.4

Ask: Please list folding enthalpy recorded for the sequence GGCCACGAAAGTGCGGCC ((((((....)))..)))
Reply: -39.6

Ask: Please list folding enthalpy recorded for the sequence GAATACGAAAGTAGTTC ((((((....))).)))
Reply: -10.9

Ask: Please list folding enthalpy recorded for the sequence GATCACTACGGTGATC ((((((....))))))
Reply: -37.9

Ask: Please list folding enthalpy recorded for the sequence GGCAGATCGAAAGATGCC (((..(((....))))))
Reply: -26.8

Ask: Please list folding enthalpy recorded for the sequence GGTTGGGGAAACCCAGTC (..((((....))))..)
Reply: -8.72

Provenance of the data: the array DNA melting data of Ke et al. (doi:10.1101/2024.01.08.574731)
